# Tested on: U251 CNS
Please reply with one of these outcomes: active, inactive

Solved entries (count: 3):
CCNC(=O)c1cc2c(-c3cc(C(C)(C)O)ccc3Oc3c(C)cc(F)cc3C)cn(C)c(=O)c2[nH]1	inactive
O=C(Nc1ccccc1)NS(=O)(=O)c1ccc(-n2nc3c(c2-c2ccc(Cl)cc2)Cc2ccccc2-3)cc1	inactive
Cc1cccc2c(=O)c3c(sc12)c(NCCNCCO)nc1ccccc13	inactive

[ask] Query: recorded result category for O=C1/C(=C/c2ccc(Cl)cc2)N=C(c2ccccc2)N1CCc1cccs1 in this test
[reply] inactive

[ask] Query: recorded result category for CN(CC(=O)N(Cc1ccc(C2CCCCC2)cc1)c1ccc(C(=O)O)c(O)c1)S(=O)(=O)c1c(F)c(F)c(F)c(F)c1F in this test
[reply] inactive

[ask] Query: recorded result category for C[C@@H](CO)[C@@H]1CCC=C2CC[C@]3(C)[C@H](CC[C@@H]4[C@@]5(C)CCCNC(C)(C)[C@@H]5CC[C@]43C)[C@H]21 in this test
[reply] inactive

[ask] Query: recorded result category for N#Cc1c(N)nc(N2CCOCC2)c(C#N)c1-c1cccnc1 in this test
[reply] inactive

[ask] Query: recorded result category for COc1cc2c(cc1Nc1nc(Nc3ccsc3C(N)=O)c3cc[nH]c3n1)N(C(=O)CN(C)C)CCC2(C)C in this test
[reply] inactive

[ask] Query: recorded result category for COc1cc(O)c(C(=O)/C=C/c2ccc(O)cc2)c(O)c1[C@@H]1C[C@H](CCc2ccc(O)cc2)O[C@H](c2ccc(O)cc2)C1 in this test
[reply] inactive

[ask] Query: recorded result category for CC(=O)O[C@]1(C(C)=O)CC[C@H]2[C@@H]3C=C(C)C4=CC(=O)CC[C@]4(C)[C@H]3CC[C@@]21C in this test
[reply] inactive

[ask] Query: recorded result category for CCN(C(=O)c1cc(F)ccc1Oc1cncnc1N1CC2(CCN(CC3CCC(NS(=O)(=O)CC)CC3)CC2)C1)C(C)C (stereo not drawn) in this test
[reply] inactive

[ask] Query: recorded result category for COc1cc(/C=C/C(=O)c2ccc(NC(=O)CN3CCN(c4cc5c(cc4F)c(=O)c(C(=O)O)cn5C4CC4)CC3)cc2)cc(OC)c1OC in this test
[reply] active

[ask] Query: recorded result category for CN1c2ccccc2C(C)(C)C12C=Cc1cc(O)ccc1O2 (stereo not drawn) in this test
[reply] inactive

----------
# Test system: KM12 colon
# RUN DESCRIPTION: NCI tumour cell line growth inhibition, 48 h
PARAMETER MEASURED: GI50

CO/N=C(\C)COc1ccc2c(=O)c(-c3ccccc3)coc2c1	> 100 µM
COC(=O)C1=C(C)NC(C)=C(C(=O)OC)C1/C=C(Cl)/C=C/c1ccccc1	18.4 µM
O=C(NCc1ccc(Cn2c(=O)sn(-c3ccccc3)c2=O)cc1)OCc1ccc2c(Br)cc(Br)c(O)c2n1	1.57 µM
CC(=O)O[C@]1(C(C)=O)CC[C@H]2[C@@H]3C=C(C)C4=CC(=O)CC[C@]4(C)[C@H]3CC[C@@]21C	> 100 µM
COc1ccc(-c2nc3ccccn3c2/C=C/C(=O)c2cc(OC)c(OC)c(OC)c2)cc1	4.99 µM

For the next question, use this compound.
COc1ccc(Nc2c3ccccc3nc3ccccc23)cc1 has a reported GI50 of 1.33 µM
